test: soluble on expression in E. coli; label from the status in PepcDB or PDB records

| residueString | soluble on expression in E. coli |
| --- | --- |
| MIILIRYGPIDVTYCRMKRGFMYMVAIIDWYSRYIVGFELSNTLDKTFVIEAIQKAIKRYGKPEIMNSDQGSQFTSDDYINLLKNNGIKISMDGKGRALDNQRIERFFRSYKWEKLYLEECETVQQLRQITKEYVEHYNHRRPHQSLDYKTPAEYYFGGYDQLLAVV | not soluble |
| MAHHHHHHMSQLSASPREEPVGIPELFLQYLKAKDLKDQLAIVRAHPVLFTDDVVAALKDARAQMNETFVEVKETCRVIDAVSGSLQYTGTSVQLQQTVAKELLDEDAILKKFATSLAGLLRARETAGPAAPSTISSLATASRVSSSLGAGKSHSPGAWFTQPSLVFSVLTFLSAEEIFITAENVCRAWQTWLFLPDMSRFFWVGCVQREFPEQLQVLLQTAGDDLYQSDWRSLAMLCVTEGEQAAEAEEAEEAGDGGAVRGVVPFL | not soluble |
| AARRKIAKDLGKQVTQAMQTLSMQGGRFEAALTGGAPSAHGSEQVEFLVAGHAGSTPRPLAKVASGGELSRISLALSVIASRAARVPTLIFDEVDSGVGGAVAEAVGKLLRELGQRHQVLCVTHLPQVAACAHAQYRVSKVESGGSTRSRIAELDAEARVEEVARMLGGIKITATTRDHAREMLGGHTAPAA | not soluble |

###

assay: soluble on expression in E. coli; label from the status in PepcDB or PDB records

| residueString | soluble on expression in E. coli |
| --- | --- |
| MKQFVVISGKGGTGKTSVTAGLAAVGKDMVLADCDVDAADLHLVLAPEIRERHDFISGVVASIEPEACISCGLCTTHCRYGAIPQGYAPQVAPEHCEGCGVCAHVCPTGAARLSDRRCGEWYVSDTRFGPMVHAALGIGEENSGKLVSTVRTRARELAEARDASVVLIDGSPGVGCPVIASLAGADAALAVTEPTVSALHDLERVHALARHFDVRMAVLLNKADIHPGMAERIIGYCTTHDLPLVGRFGFSPLFVQAQLEGRTLPEQDSGEWRQRFNGVWNQLLALVLEHHHHHH | not soluble |
| MAKTLGLHILADLYGVDADKIDRVEDIRELLEGAVKYANLTKISSHYYQFQPHGATGVVLLAESHISIHTWPEHGLATVDVYTCGDPSKAYRAMDYIITQLNPKRIDKQVHERGIVEEESNQSEAEKLRSILLQV | soluble |
| MGSDKIHHHHHHMTAPTAQSMQAQPIHARLMNGEVLSQDDATAFMREVMSGDMSGVRMAAALAALRVRGETPEEIAGFAQAMRESAVTVKVRPRDVLMDVVGTGGDGAHTFNISTTTAFVLAGAGVPIAKHGNRAASSRAGSADVLEALGVNLDASPEVIQEAIDTLGVGFMFARNYHPALRHAAPVRSDLAARTVFNILGPLSNPAGATHLVVGVFRADLTRTLAEALRHLGAKGATVVYGDGLDEFTVCGPNTVSGLRDGEIIDRTMHPEEFGVDLHPKTAIVGGSPAENAEITHALLTGGGTPAQKDIVALNAGAALRTAGRVGTIREGVEQAREVMKGGQGWEMLQKYGALTKR | not soluble |
| MNLNIETSRRIELIDITSEVKEEVRISGVREGVCIISTRHTTAGIIVNENENGLREDILNMLERLVPQGAGYRHDRIDNNADSHLKAILLGSSEALPIVKGELELGTWQSIFFAEMDGPRNRAVNLTILKTELEHHHHHH | soluble |
| MTDTQYIGRFAPSPSGELHFGSLIAALGSYLQARARQGRWLVRIEDIDPPREVPGAAETILRQLEHYGLHWDGDVLWQSQRHDAYREALAWLHEQGLSYYCTCTRARIQSIGGIYDGHCRVLHHGPDNAAVRIRQQHPVTQFTDQLRGIIHADEKLAREDFIIHRRDGLFAYNLAVVVDDHFQGVTEIVRGADLIEPTVRQISLYQLFGWKVPDYIHLPLALNPQGAKLSKQNHAPALPKGDPRPVLIAALQFLGQQAEAHWQDFSVEQILQSAVKNWRLTAVPESAIVNSTFSNASC | soluble |
| MQIDFNSDMGESFGAWTIGDGVDTELMAFISSANIATGFHAGDPSTMRRTIEQAKRLGVAIGAHPGFRDLVGFGRRHINAPAQELVDDMLYQLGALRELARVQGVPLQHFKPHGALYMHLARDEEAARLLVENLQRLEPDLLLYCMPGSVICNVAQELGQPVVREFYADRAYDLSGSIVFTRNVRAHDPAEVAARVIRACQQGLVRTVEGDDLAIQFDSICLHSDTPGALALAQATRQALDGAGIEVRTPRLEHHHHHH | not soluble |
| MSGRLTGKVALVSGGARGMGASHVRAMVAEGAKVVFGDILDEEGKAMAAELADAARYVHLDVTQPAQWKAAVDTAVTAFGGLHVLVNNAGILNIGTIEDYALTEWQRILDVNLTGVFLGIRAVVKPMKEAGRGSIINISSIEGLAGTVACHGYTATKFAVRGLTKSTALELGPSGIRVNSIHPGLVKTPMTDWVPEDIFQTALGRAAEPVEVSNLVVYLASDESSYSTGAEFVVDGGTVAGLAHNDFGAVEVSSQPEWVT | soluble |
| GSESGLRYAYTLVVDGTANTARCFGTGHVDGEAFVGYSNNKTHGIGRWVNASHVEEENKEFVRQCKELQAELDKMQNNSAVIGVKTVQLDVGCTSKIEKHYAYDGNETEDDTATSASERARDCQKKLTEYRKLVLASAVSPQLEVERRSSGREGGMRLRCFARDYYPADLEIRWWKDDGGGGALPQTSKQHHDPLPSGQGLYQKHIDVYVDGGLEHVYSCRVKGIATGLELQIVRWKG | soluble |
| MRVSDQVVQKLQGLIEQRHLKQGDRLPAERQLATSLGISRPSLREAIQQLNSLGILASRRGDGTYIQQLPETWSQQLIVEPISNLIEEDPEYRFDVQEARIVLEGGTAWYAALRSTEADRAKIHQCFDEIAYHQLQGDSAAAAVADANFHLAIAEASHNLVLIQMMRSLFDLLQYNVVLGRKKVYNHPVSADQLSEQHFQVMDAIDRQDAQAARDAVCGHIEFVIDHVRSLDEDEARQKRATRLHRIDQT | not soluble |
| DGGTMENLSRRLKVTGDLFDIMSGQT | soluble |
| MKYKIFASTTPQTEPVLQKLKQVLKGCEAVEKGFDYLFVLGGDGFFVSTVANYNCHNCRVVGINTGHLGFYTSFNEKDLDDNFLQKLQQCHFQRISLLEVSVNGQQHLVLNELAVYTNTAYPINIFIDGEAWEFYRGSGLLIGPRTGSTALAKSAKGAVIFPGIDVLQIIEMNPLLHPNQVTIQSPIILPKETQVEFVVKKAFNPQQFPTFYCDGRKLELPNADTTLALKLVQSTPMFNISLKTQDFINKLKSTFIKQSLEHHHHHH | not soluble |
| GPGSMERYAFAEDYKNARGIPRVEYISDMATFVKNNGGADALISRLILDSSKYEHTEKRLVSSMANLDHKIPTIKKTLHALNFLKKRLQEDQTPVRSYYCLTDAVFGEAEVVPQETVHLWMGAKVMVEYTFDEALQLLEKNLANAETNLKATKEDLAWVQEQMTNLQINISRVYNYDLKNKRTNGGAAEPSA | soluble |

###

assay: soluble on expression in E. coli; label from the status in PepcDB or PDB records
propertyMeasured: soluble on expression in E. coli

| residueString | propertyMeasured | reportedResult |
| --- | --- | --- |
| MGSDKIHHHHHHMQTFPAYSSMQLSLSPTQCQPLKIIALGDSLVYGFGDPDKGGWVEQLRRWWMLPDSSGHVLYNLGVRGDRTQQVAQRLEVEFRHRGELRNRVPDLIILSVGVNDSARLTRLNGRNCTDFALFESEIASLLDQAQQLCPVLFVGMVPVDEAKMPFLNCFYFNHADQYRYKEATRIACNQRQIPYLDIFDQWMARGDAWRNKRLTEDGLHPNTLGYQSLLEDVIHWEHLAGYHTRPDYQLK | soluble on expression in E. coli | not soluble |
| MQGVPSNEPMLGQLTDNGRAAEAGLKEGDYIQSINGEKMRSWTDIVSAVKENPEKEMDVAVKRDNKTLHISVTPEAVKDENKKTIGRFGSYAPTEKGVLSAVAYGATSTVDVTKAILTNLSKLVTGQFKLDMLSGPVGIYDMTDQVAKTGI | soluble on expression in E. coli | not soluble |

###

assay: soluble on expression in E. coli; label from the status in PepcDB or PDB records

| residueString | soluble on expression in E. coli |
| --- | --- |
| MSIAIKDDDEFKTIFAEKKTQPVILFFTASWCGPCQMIKPRVEELAAEHKDRLSILKIDVDECDGVGEEYEINSMPTFLLIVDGIKKDQFSGANNTKFEEMVKAALQ | not soluble |
| MGSDKIHHHHHHMKIKKGDTEAEILTKGAYLYSFKIGNRDMILRGDLERPTRGGMAILIPFANRVKNAEYVFEGVKYTLPQNREGNAIHGLVMDKEFNVIGKSEDSISLQYILEHEGYPSKLDCVITYKVFKYGLRIKIVVRNVGNKRAPLTVGAHPYFITADDWRIVVEKEESIKKCISFNKIPTGELVKTKLEHTDYDDCFLISGGIQLHSSYSKVRITRRNMPFVQIYTGVRGSIAIEPMSGAPDAYHNGLGLKILEPNESSYFAFAFRFH | not soluble |
